Assay: in vitro
Settings: mouse, mouse neuronal cells
Description: Toxicity in mouse neuronal cells assessed as safe dose that maintains 100% cell viability incubated for 72 hrs by MTT assay
Rule: MNTC at 72 h of 1000 nM or more gives Fulfilled; anything lower gives Not fulfilled.

1) O=[N+]([O-])c1ccc(-n2cc(COc3ccc(/C=N/Nc4c5c(nc6ccccc46)CCCC5)cc3)nn2)cc1    Not fulfilled
2) COc1ccc(NC(=S)NNc2c3c(nc4ccccc24)CCCC3)cc1    Fulfilled
3) S=C(NNc1c2c(nc3ccccc13)CCCC2)Nc1ccccc1    Not fulfilled
4) C=CCNC(=S)NNc1c2c(nc3ccccc13)CCCC2    Fulfilled

###

Entries with reported pIC50 on Acetylcholinesterase (Electrophorus electricus, UniProt O42275)
Sequence (O42275 whole entry): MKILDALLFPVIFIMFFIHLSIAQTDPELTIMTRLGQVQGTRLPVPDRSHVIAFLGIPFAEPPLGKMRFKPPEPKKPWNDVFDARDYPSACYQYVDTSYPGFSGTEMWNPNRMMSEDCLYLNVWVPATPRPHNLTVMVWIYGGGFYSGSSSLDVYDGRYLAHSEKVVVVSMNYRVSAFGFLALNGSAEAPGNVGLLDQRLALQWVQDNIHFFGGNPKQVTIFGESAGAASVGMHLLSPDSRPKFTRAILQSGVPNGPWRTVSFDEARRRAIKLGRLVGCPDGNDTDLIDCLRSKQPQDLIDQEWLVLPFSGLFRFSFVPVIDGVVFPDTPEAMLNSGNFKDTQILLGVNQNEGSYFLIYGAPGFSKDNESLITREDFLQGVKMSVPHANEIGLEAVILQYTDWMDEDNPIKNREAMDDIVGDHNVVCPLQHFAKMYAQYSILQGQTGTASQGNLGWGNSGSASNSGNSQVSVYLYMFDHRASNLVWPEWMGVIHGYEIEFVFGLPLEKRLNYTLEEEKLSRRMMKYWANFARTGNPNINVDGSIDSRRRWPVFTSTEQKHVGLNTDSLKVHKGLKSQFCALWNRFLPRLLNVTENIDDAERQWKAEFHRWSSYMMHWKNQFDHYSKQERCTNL
pIC50: −log10 of the molar value.
Quantity Name: pIC50

1) Cl.O=C(O)c1ccc(-n2cc(COc3ccc(/C=N/Nc4c5c(nc6ccccc46)CCCC5)cc3)nn2)cc1    5.88
2) S=C(NNc1c2c(nc3ccccc13)CCCC2)Nc1ccccc1    5.73
3) COc1ccc(NC(=S)NNc2c3c(nc4ccccc24)CCCC3)cc1    6.04
4) Cc1ccc(-n2cc(COc3ccc(/C=N/Nc4c5c(nc6ccccc46)CCCC5)cc3)nn2)cc1.Cl    4.69
5) C#CCOc1ccc(/C=N/Nc2c3c(nc4ccccc24)CCCC3)cc1    6.36
6) C(=N\Nc1c2c(nc3ccccc13)CCCC2)/c1ccc(OCc2cn(-c3ccccc3)nn2)cc1    6.04
7) C=CCNC(=S)NNc1c2c(nc3ccccc13)CCCC2    5.87
8) NS(=O)(=O)c1ccc(NC(=S)NNc2c3c(nc4ccccc24)CCCC3)cc1    6.10
9) C(=N\Nc1c2c(nc3ccccc13)CCCC2)/c1ccc(OCc2cn(Cc3ccccc3)nn2)cc1    6.26
10) NS(=O)(=O)c1ccc(-n2cc(COc3ccc(/C=N/Nc4c5c(nc6ccccc46)CCCC5)cc3)nn2)cc1    6.09
11) COc1ccc(-n2cc(COc3ccc(/C=N/Nc4c5c(nc6ccccc46)CCCC5)cc3)nn2)cc1.Cl    5.68
12) O=[N+]([O-])c1ccc(-n2cc(COc3ccc(/C=N/Nc4c5c(nc6ccccc46)CCCC5)cc3)nn2)cc1    6.27
13) S=C(NNc1c2c(nc3ccccc13)CCCC2)Nc1ccc(Cl)cc1    5.42
14) Brc1ccc(-n2cc(COc3ccc(/C=N/Nc4c5c(nc6ccccc46)CCCC5)cc3)nn2)cc1.Cl    4.74
15) Cl.Clc1ccc(-n2cc(COc3ccc(/C=N/Nc4c5c(nc6ccccc46)CCCC5)cc3)nn2)cc1    5.36
16) S=C(NNc1c2c(nc3ccccc13)CCCC2)Nc1ccc(Br)cc1    6.06
17) O=[N+]([O-])c1cccc(-n2cc(COc3ccc(/C=N/Nc4c5c(nc6ccccc46)CCCC5)cc3)nn2)c1    7.18
